TESTED_TARGET: kinases (Homo sapiens, UniProt P00519, H396P)
Construct: purchased Eurofins/DiscoveRx; host or cells: E. coli BL21-derived host (T7 phage display) for most kinases; HEK-293 for the rest
PROTOCOL_SUMMARY: KINOMEscan kinase binding assay (Eurofins/DiscoveRx), % Ctrl
CONDITIONS_USED: 1 μM; ABL1(H396P)-nonphosphorylated
RESULT_TYPE: % Ctrl, ABL1(H396P)-nonphosphorylated (% Ctrl)
Entry rule: numbers only, all in % Ctrl.

CNC(=O)[C@H]1CN(C)C(=O)c2cc(C)[nH]c2/C=C2\C(=O)Nc3cc(Cl)c(cc32)OCCO1
29
Cc1cc2c([nH]1)/C=C1\C(=O)Nc3cc(Cl)c(cc31)OCCO[C@@H](C(=O)NC1CCNCC1)CN(C)C2=O
25
Cc1cc2c([nH]1)/C=C1\C(=O)Nc3ccc(cc31)CN(C)C(=O)COCCNC2=O
62
Cc1cc2c([nH]1)/C=C1\C(=O)Nc3ccc(cc31)-c1cnn(C)c1CN(C)CCN(C)C2=O
0
Cc1cc2c([nH]1)/C=C1\C(=O)Nc3ccc(cc31)-c1cnn(C)c1COCCN(C)C2=O
0.5

I'd like to know its % Ctrl, ABL1(H396P)-nonphosphorylated. The compound in question is `Cc1cc2c([nH]1)/C=C1\C(=O)Nc3ccc(cc31)-c1cnn(C)c1CNCCN(C)C2=O` 0

I'd like to know its % Ctrl, ABL1(H396P)-nonphosphorylated. The compound in question is `Cc1cc2c([nH]1)/C=C1\C(=O)Nc3ccc(cc31)-c1ccnn1CCOCCN(C)C2=O` 6.1

Fill blank: measured % Ctrl, ABL1(H396P)-nonphosphorylated of the compound `Cc1cc2c([nH]1)/C=C1\C(=O)Nc3ccc(cc31)OCCOCCN(C)C2=O` is ____. 0.55

###

Tested on: kinases
PROTOCOL_SUMMARY: KINOMEscan kinase binding assay (Eurofins/DiscoveRx), % Ctrl
CONDITIONS_USED: 1 μM; FLT3(ITD, F691L)
// returns FALSE unless % Ctrl, FLT3(ITD, F691L) is strictly below 9 % Ctrl, in which case TRUE

Solved entries (count: 10):
Cc1cc2c([nH]1)/C=C1\C(=O)Nc3ccc(cc31)CN(C)C(=O)COCCNC2=O [Ex.111]
TRUE
Cc1cc2c([nH]1)/C=C1\C(=O)Nc3cc(Cl)c(cc31)OCCO[C@@H](C(=O)NC1CCNCC1)CN(C)C2=O [Ex. 134]
TRUE
Cc1cc2c([nH]1)/C=C1\C(=O)Nc3cc(Cl)c(cc31)OCCOCCN(C)C2=O [Ex. 131]
TRUE
Cc1cc2c([nH]1)/C=C1\C(=O)Nc3ccc(cc31)-c1ccnn1CCOCCNC2=O [Ex.39]
FALSE
Cc1cc2c([nH]1)/C=C1\C(=O)Nc3ccc(cc31)-c1cnn(C)c1CN(C)CCN(C)C2=O [Ex. 126]
TRUE
Cc1cc2c([nH]1)/C=C1\C(=O)Nc3ccc(cc31)-c1ccnn1CCNCCNC2=O [Ex. 43]
FALSE
Cc1cc2c([nH]1)/C=C1\C(=O)Nc3ccc(cc31)OCCOCCNC2=O [Ex. 129]
FALSE
Cc1cc2c([nH]1)/C=C1\C(=O)Nc3ccc(cc31)OCCOCCN(C)C2=O [Ex.91]
TRUE
Cc1cc2c([nH]1)/C=C1\C(=O)Nc3ccc(cc31)-c1c(C)n[nH]c1CNCCN(C)C2=O [Ex. 127]
TRUE
Cc1cc2c([nH]1)/C=C1\C(=O)Nc3cc(Cl)c(cc31)OCCO[C@@H](C(=O)N(C)C)CN(C)C2=O [Ex. 137]
FALSE

Take the compound Cc1cc2c([nH]1)/C=C1\C(=O)Nc3ccc(cc31)-c1cnn(C)c1CNCCN(C)C2=O [Ex. 125] and say whether its % Ctrl, FLT3(ITD, F691L) is less than 9 % Ctrl. TRUE

is_below(% Ctrl, FLT3(ITD, F691L), 9 % Ctrl) for Cc1cc2c([nH]1)/C=C1\C(=O)Nc3ccc(cc31)-c1c(noc1C)COCCN(C)C2=O [Ex. 128] ? FALSE
